- measuredTarget: IRAK4 (Homo sapiens (Human))
- experimentDescription: hPBMC IRAK4 degradation flow assay
- Format: cell-based
- cond: hPBMC monocyte, 20 hrs; read-out: IRAK4 degradation in hPBMC monocyte: DC50
measuredParameter: DC50

Observe how each entry below is paired with its result.
molecule	measuredTarget	DC50
O=C1CCC(n2c3cccc(CCCN4CC5(CCN(C(=O)[C@H]6CC[C@H](n7cc(NC(=O)c8cnn9ccc(N%10C[C@H]%11C[C@@H]%10CO%11)nc89)c(C(F)F)n7)CC6)CC5)C4)c3c3cccnc32)C(=O)N1 (stereo partly drawn) [I-445]	IRAK4 (Homo sapiens (Human))	< 10 nM
CN(CCCC#Cc1cccc2c1n(C)c(=O)n2C1CCC(=O)NC1=O)C[C@H]1CC[C@H](n2cc(NC(=O)c3cnn4ccc(N5C[C@H]6C[C@@H]5CO6)nc34)c(C(F)F)n2)CC1 (stereo partly drawn) [I-550]	IRAK4 (Homo sapiens (Human))	< 10 nM

Kindly consider the entry below.
Look up DC50 for this molecule: Cn1c(=O)n(C2CCC(=O)NC2=O)c2cccc(CCCC3CCN(C[C@H]4CC[C@H](C5N=C(NC(=O)c6cnn7ccc(N8C[C@H]9CC[C@@H](C8)O9)nc67)C(C(F)F)=N5)CC4)CC3)c21 (stereo partly drawn) [I-535] < 10 nM

###

// reported DC50 for each item listed
- measuredTarget: IRAK4 (Homo sapiens (Human), UniProt Q9NWZ3)
- Sequence (Q9NWZ3 whole entry): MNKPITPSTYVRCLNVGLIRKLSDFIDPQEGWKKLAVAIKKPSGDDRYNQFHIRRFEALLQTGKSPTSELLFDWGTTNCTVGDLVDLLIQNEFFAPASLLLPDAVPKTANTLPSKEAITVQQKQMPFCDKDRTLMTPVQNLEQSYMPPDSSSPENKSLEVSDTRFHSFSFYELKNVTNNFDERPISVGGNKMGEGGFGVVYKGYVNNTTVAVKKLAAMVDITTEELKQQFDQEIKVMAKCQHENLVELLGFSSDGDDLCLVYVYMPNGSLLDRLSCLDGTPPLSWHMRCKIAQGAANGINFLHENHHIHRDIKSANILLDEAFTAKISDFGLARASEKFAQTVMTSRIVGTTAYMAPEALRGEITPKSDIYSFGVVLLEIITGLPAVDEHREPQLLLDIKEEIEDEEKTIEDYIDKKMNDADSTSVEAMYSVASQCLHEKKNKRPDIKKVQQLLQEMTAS
- experimentDescription: IRAK4 MSD degradation in OCI-LY10
- Type: cell-based
- cond: OCI-LY10, 4 hrs; read-out: IRAK4 MSD degradation in OCI-LY10 at 4 hrs: DC50

Past entries and their recorded results:
compound	DC50
Cc1ccc(-c2nn([C@H]3CC[C@H](CN4CCC(OCCCc5cccc6c5n(C)c(=O)n6C5CCC(=O)NC5=O)CC4)CC3)cc2NC(=O)c2cnn3ccc(N4C[C@H]5C[C@@H]4CO5)nc23)nc1 (stereo partly shown) [I-484]	100 to 1000 nM
Cn1c(=O)n(C2CCC(=O)NC2=O)c2cccc(OC3CC4(CCN(C[C@H]5CC[C@H](n6cc(NC(=O)c7cnn8ccc(N9C[C@H]%10C[C@@H]9CO%10)nc78)c(C(F)F)n6)CC5)CC4)C3)c21 (stereo partly shown) [I-526]	< 10 nM

Okay, now this compound:
What value of measured DC50 is listed for Cn1c(=O)n(C2CCC(=O)NC2=O)c2cccc(CCC(=O)N3CCC4(CCN(C[C@H]5CC[C@H](n6cc(NC(=O)c7cnn8ccc(N9C[C@H]%10C[C@@H]9CO%10)nc78)c(C(F)F)n6)CC5)CC4)CC3)c21 (stereo partly shown) [I-467] ? < 10 nM

###

- Tested on: TNFα
- experimentDescription: Human whole blood LPS TNFα assay
- Assay type: cell-based
- cond: 20 h pretreatment, LPS 5 h, read-out: IRAK4 human whole blood LPS TNFa inhibition: Average external-IC50
Entries annotated with measured IC50

compound	IC50
Cn1c(=O)n(C2CCC(=O)NC2=O)c2cccc(CCCOCCNC[C@H]3CC[C@H](n4cc(NC(=O)c5coc(-c6ccnc(NCC(F)(F)F)c6)n5)c(C(N)=O)n4)CC3)c21 (some centres unmarked) [I-11]	> 1000 nM
CN(CCCOCCCc1cccc2c1n(C)c(=O)n2C1CCC(=O)NC1=O)C(=O)[C@H]1CC[C@H](n2cc(NC(=O)c3coc(-c4ccnc(NCC(F)(F)F)c4)n3)c(C(N)=O)n2)CC1 (some centres unmarked) [I-28]	> 1000 nM

Next compound, IC50 to be filled in.
Which measured IC50 value corresponds to Cn1c(=O)n(C2CCC(=O)NC2=O)c2ccc(CCCN3CCO[C@H](CNC[C@H]4CC[C@H](n5cc(NC(=O)c6coc(-c7ccnc(NCC8CC8)c7)n6)c(C(F)F)n5)CC4)C3)cc21 (some centres unmarked) [I-35] ? 500 to 1000 nM

###

- measuredTarget: IRAK4 (Homo sapiens (Human))
- experimentDescription: IRAK4 MSD degradation in OCI-LY10
- Type: cell-based
- cond: OCI-LY10, 4 hrs, MSD; read-out: IRAK4 MSD degradation in OCI-LY10 at 4 hrs: Average external-Abs DC50
Here the recorded DC50 is given for each entry.

molecule	measuredTarget	DC50
Cn1c(=O)n([C@H]2CCC(=O)NC2=O)c2cccc(CCCOC3CCN(C[C@H]4CC[C@H](n5cc(NC(=O)c6cnn7ccc(N8CCOCC8)nc67)c(C(F)F)n5)CC4)CC3)c21 [I-310]	IRAK4 (Homo sapiens (Human))	< 10 nM

What measured DC50 goes with N#CCc1ccc2c(N[C@H]3CC[C@H](N4CCN(C(=O)COCCOCCOCCOCCNc5cccc6c5C(=O)N(C5CCC(=O)NC5=O)C6=O)CC4)CC3)ncnc2c1 (stereo partly drawn) [I-52] ? > 1000 nM

Look up DC50 for this molecule: Cn1c(=O)n(C2CCC(=O)NC2=O)c2cccc(CCCOCCOCCOCCOCC(=O)N3CCN([C@H]4CC[C@H](Nc5ncnn6ccc(C7CCOCC7)c56)CC4)CC3)c21 (stereo partly drawn) [I-19] > 1000 nM

###

- Test system: OCI-LY10
- experimentDescription: CTG Cell Viability Assay - OCI-LY10
- Assay type: cell-based, human
- cond: Homo sapiens, OCI-Ly10, 96 h, OCI-LY10, 4 days; read-out: CTG Cell Viability Assay - OCI-LY10: Average external-IC50
Property: IC50; scope: individual compounds

compound	IC50
CN(CC1CCN(c2ccc3c(c2)n(C)c(=O)n3C2CCC(=O)NC2=O)CC1)C[C@H]1CC[C@H](n2cc(NC(=O)c3coc(-c4ccnc(NCC5CC5)c4)n3)c(C(F)F)n2)CC1 (stereo partly drawn) [I-236]	> 1000 nM
CN(CCCOCCCNc1cccc2c1C(=O)N(C1CCC(=O)NC1=O)C2=O)C[C@H]1CC[C@H](n2cc(NC(=O)c3coc(-c4ccnc(N5CCOCC5)c4)n3)c(C(F)F)n2)CC1 (stereo partly drawn) [I-397]	50 to 100 nM

Now, please, on to the next compound.
Query the reported IC50 for OCI-LY10; item: CN(CCC1CCN(c2cccc3c2C(=O)N(C2CCC(=O)NC2=O)C3=O)CC1)C[C@H]1CC[C@H](n2cc(NC(=O)C3CNN4C=CC(N5CCOCC5)=NC34)c(C(F)F)n2)CC1 (stereo partly drawn) [I-223] > 1000 nM

###

Each entry below carries its recorded DC50.
- measuredTarget: IRAK4 (Homo sapiens (Human))
- experimentDescription: IRAK4 MSD degradation in OCI-LY10
- Type: cell-based
- cond: OCI-LY10, 4 hrs, MSD; read-out: IRAK4 MSD degradation in OCI-LY10 at 4 hrs: Average external-Abs DC50

Example entries and their recorded answers appear below.
compound	measuredParameter	recordedResult
CN(C[C@H]1CC[C@H](n2cc(NC(=O)c3coc(-c4ccnc(NCC5CC5)c4)n3)c(C(F)F)n2)CC1)C1CN(Cc2cccc3c2n(C)c(=O)n3C2CCC(=O)NC2=O)C1 (some centres unmarked) [I-240]	DC50	< 10 nM
O=C1CCC(n2c3cc(CCCOCCOCCNC[C@H]4CC[C@H](n5cc(NC(=O)c6coc(-c7ccnc(NCC8CC8)c7)n6)c(C(F)F)n5)CC4)ccc3c3cccnc32)C(=O)N1 (some centres unmarked) [I-81]	DC50	100 to 1000 nM
CN(CCC1CCN(Cc2cccc3c2n(C)c(=O)n3C2CCC(=O)NC2=O)CC1)C[C@H]1CC[C@H](n2cc(NC(=O)c3cnn4ccc(N5C[C@H](N)CC(F)(F)C5)nc34)c(C(F)F)n2)CC1 (some centres unmarked) [I-155]	DC50	10 to 100 nM
Cn1c(=O)n(C2CCC(=O)NC2=O)c2cccc(CCCOCC3CCN(C[C@H]4CC[C@H](n5cc(NC(=O)c6cnn7ccc(N8CCOCC8)nc67)c(C(F)F)n5)CC4)CC3)c21 (some centres unmarked) [I-198]	DC50	< 10 nM
CN(CCN1CCO[C@@H](CCNc2cccc3c2C(=O)N(C2CCC(=O)NC2=O)C3=O)C1)C[C@H]1CC[C@H](n2cc(NC(=O)c3cnn4ccc(N5C[C@H]6C[C@@H]5CO6)nc34)c(C(F)F)n2)CC1 (some centres unmarked) [I-337]	DC50	100 to 1000 nM
Cn1c(=O)n(C2CCC(=O)NC2=O)c2ccc(CCCOC3CCN(C[C@H]4CC[C@H](n5cc(NC(=O)c6cnn7ccc(N[C@@H]8CCCC[C@@H]8O)nc67)c(C(F)F)n5)CC4)CC3)cc21 (some centres unmarked) [I-280]	DC50	10 to 100 nM
CN(CCCOCCCc1cccc2c1n(C)c(=O)n2C1CCC(=O)NC1=O)C[C@H]1CC[C@H](n2cc(NC(=O)c3coc(-c4ccncc4)n3)c(C(F)F)n2)CC1 (some centres unmarked) [I-69]	DC50	100 to 1000 nM
CN(CCCc1ccc(CNc2cccc3c2C(=O)N(C2CCC(=O)NC2=O)C3=O)cc1)C[C@H]1CC[C@H](n2cc(NC(=O)c3cnn4ccc(N5C[C@H]6C[C@@H]5CO6)nc34)c(C(F)F)n2)CC1 (some centres unmarked) [I-361]	DC50	> 1000 nM

DC50 lookup needed for CN(C[C@H]1CN(CC#Cc2ccc3c(c2)n(C)c(=O)n3C2CCC(=O)NC2=O)CCO1)C[C@H]1CC[C@H](n2cc(NC(=O)c3coc(-c4ccnc(NCC5CC5)c4)n3)c(C(F)F)n2)CC1 (some centres unmarked) [I-61] , thanks. 10 to 100 nM

DC50 for O=C1CCC(n2c3cccc(CCCOC4CCN(C[C@H]5CC[C@H](n6cc(NC(=O)c7cnn8ccc(N9CCC(O)CC9)nc78)c(C(F)F)n6)CC5)CC4)c3c3cccnc32)C(=O)N1 (some centres unmarked) [I-151] ? 10 to 100 nM

May I ask what DC50 has been recorded for CN(CCc1ccc(CNc2cccc3c2C(=O)N(C2CCC(=O)NC2=O)C3=O)cc1)C[C@H]1CC[C@H](n2cc(NC(=O)c3cnn4ccc(N5C[C@H]6C[C@@H]5CO6)nc34)c(C(F)F)n2)CC1 (some centres unmarked) [I-359] ? > 1000 nM

State the recorded DC50 for this entry: Cn1c(=O)n(C2CCC(=O)NC2=O)c2ccc(CCCN3CCO[C@H](CNC[C@H]4CC[C@H](n5cc(NC(=O)c6coc(-c7ccnc(NCC8CC8)c7)n6)c(C(F)F)n5)CC4)C3)cc21 (some centres unmarked) [I-35] 10 to 100 nM
